Data origin, for the record: PubChem BioAssay AID624202

Experiment: qHTS Assay to Identify Small Molecule Activators of BRCA1 Expression; also: nearly all actives have a fitted effect of over 80% in size
Conditions: MCF7-BRCA1-FFLuc reporter, luminescence, 48 h; series mostly up to 46.1 µM
Hit rate of the full screen: of about 380,000 compounds, about 4,000 (1.1%) were called active. Roughly 3% stayed inconclusive and do not appear here. Calls follow the shape of the dose curve; as a rule, active = well fitted activation curve with a large enough effect; inconclusive = small, poorly fitted or top-dose-only effect; inactive = no such curve, though single readings can be large or run the other way. For the sample, actives were picked, then their nearest neighbours and some compounds at random.
Bench note: report the call from active, inactive

[
  {
    "COMPOUND": "CCOc1ccc(C(O)Cc2nc3ccccc3n2C)cc1 (stereo not given)",
    "CLASS_NAME": "active"
  }
]

Query :: Record lookup: outcome of this test for `Cc1cccc(NC(=O)Cc2ccc(Br)cc2)n1` ?
Result :: active

Query :: In this assay, the call recorded for `Cn1c(SCC(=O)c2ccc(F)cc2)nnc1-c1ccccn1` was what?
Result :: inactive

Query :: # fetch the recorded call for `Cn1c(SCc2c(F)cccc2Cl)nnc1-c1cnccn1` here
Result :: active

Query :: Hey, what did the test say about `Cc1cccc(NC(=O)COc2ccc(Br)cc2C)n1` ?
Result :: inactive

Query :: Write down the call the test reported for this compound. Item: `COc1cccc(NC(=O)COc2cccnc2[N+](=O)[O-])c1`
Result :: inactive

* * *

Assay: qHTS Assay to Identify Small Molecule Activators of BRCA1 Expression; also: nearly all actives have a fitted effect of over 80% in size
Settings: MCF7-BRCA1-FFLuc reporter, luminescence, 48 h; series mostly up to 46.1 µM
About 4,000 (1.1%) of roughly 380,000 compounds were called active. Not shown: some 3% with an inconclusive outcome. Calls follow the shape of the dose curve; as a rule, active = well fitted activation curve with a large enough effect; inconclusive = small, poorly fitted or top-dose-only effect; inactive = no such curve, though single readings can be large or run the other way. The sample as a whole holds a higher share of actives than the screen did.
Hello, when you answer, please use one of the following outcomes: t = active, f = inactive

Past entries and their recorded results:
[
  {
    "COMPOUND_STRUCTURE_STRING": "CC1CCN(C2=NC(=O)/C(=C/c3cn[nH]c3-c3ccccc3)S2)CC1",
    "CLASS_NAME": "f"
  },
  {
    "COMPOUND_STRUCTURE_STRING": "COc1ccc2c(c1OC)C(=O)N(c1ncn[nH]1)C2",
    "CLASS_NAME": "f"
  },
  {
    "COMPOUND_STRUCTURE_STRING": "COc1ccc2c(c1OC)C(=O)N(c1ccc(O)cc1)C2",
    "CLASS_NAME": "t"
  }
]

Query :: // return assay outcome for `COc1ccc(Nc2ncc(C(=O)Nc3cc(C)ccc3OC)c3ccccc23)cc1`
Result :: f

Query :: Entry `Nc1c(C(=O)Nc2ccc3c(c2)OCCO3)nnn1Cc1ccccc1` : call = ?
Result :: t

* * *

Assay: qHTS Assay to Identify Small Molecule Activators of BRCA1 Expression; also: nearly all actives have a fitted effect of over 80% in size
Settings: MCF7-BRCA1-FFLuc reporter, luminescence, 48 h; series mostly up to 46.1 µM
Among all 380,000 compounds or so, about 4,000 (1.1%) were called active. Another 3% or so got no clear call; they are omitted. The call rests on the fitted dose curve; in most records, active means well fitted activation curve with a large enough effect; inconclusive means small, poorly fitted or top-dose-only effect; inactive means no such curve, though single readings can be large or run the other way. The full list was thinned out, with actives kept by preference.
Pick one: active, inactive

Answered examples (10):
[
  {
    "COMPOUND": "COc1ccc(NC(=O)Nc2ccc3nsnc3c2)cc1",
    "CLASS_NAME": "active"
  },
  {
    "COMPOUND": "COc1ccccc1C(=O)NCCn1cc(SCc2ccccc2Cl)c2ccccc21",
    "CLASS_NAME": "inactive"
  },
  {
    "COMPOUND": "O=C(Nc1ccccc1)c1ccc(NC(=O)c2cccs2)cc1",
    "CLASS_NAME": "active"
  },
  {
    "COMPOUND": "COC(=O)[C@@H](NC(=O)NCc1cccc(OC)c1)C(C)C",
    "CLASS_NAME": "inactive"
  },
  {
    "COMPOUND": "Cc1oc2ncn(CC(C)C)c(=O)c2c1C(=O)N1CCN(c2ccccc2F)CC1",
    "CLASS_NAME": "inactive"
  },
  {
    "COMPOUND": "CCOC(=O)c1c(-c2ccc(OC)cc2)oc2ccc(OCc3ccc(C(=O)OC)cc3)cc12",
    "CLASS_NAME": "inactive"
  },
  {
    "COMPOUND": "COc1ccc(NC(=O)Nc2cccc(-c3noc(C)n3)c2)cc1",
    "CLASS_NAME": "inactive"
  },
  {
    "COMPOUND": "CC(C)CNC(=S)NC(=O)c1ccc(Cl)cc1",
    "CLASS_NAME": "active"
  },
  {
    "COMPOUND": "O=C(Cc1ccc(F)cc1)N/N=C/c1ccc2c(c1)OCO2",
    "CLASS_NAME": "active"
  },
  {
    "COMPOUND": "O=C(Nc1ccc2ccccc2c1)Nc1ccc2snnc2c1",
    "CLASS_NAME": "inactive"
  }
]

Query :: Which result was noted for this compound in the test: `NS(=O)(=O)c1ccc(NC(=S)NNC(=O)c2cccs2)cc1`
Result :: inactive

Query :: Look up the recorded call for `CC(=O)Oc1ccc(C(=O)Nc2nccs2)cc1` in this test.
Result :: active

Query :: What did the test return for `Cc1nc(N2CCOCC2)sc1C(=O)NN` ?
Result :: inactive
